Test system: IGROV1 ovarian
test description: NCI-60 one-dose screen, 48 h (100 = growth as untreated, 0 = no growth, -100 = all killed)
assay conditions: 10 µM unless noted
This is part of a sample that, as a whole, favours compounds with a hit. Of some 83,000 tested, about 20% had one in any assay.

# compound, growth (%)
records = [
    ("CNC(=O)c1cc(Oc2ccc3nc(NC(=O)c4cccc(OC(F)(F)F)c4)sc3c2)ccn1", 90.3),
    ("C=C(C)[C@@H]1CC[C@]2(COCCCNCCC#N)CC[C@]3(C)[C@H](CC[C@@H]4[C@@]5(C)CC[C@H](OCCCNCCC#N)C(C)(C)[C@@H]5CC[C@]43C)[C@@H]12", 72.1),
    ("COc1ccc(OC)c(-c2nc(SCC(=O)c3ccc(Br)cc3)nc(Nc3ccc(S(N)(=O)=O)cc3)c2C#N)c1", 54.7),
    ("O=S(=O)(NCCNc1nccc(-n2cnc3ccccc32)n1)c1ccc(Br)cc1", 90.7),
    ("CS(=O)(=O)Nc1cc(-c2ccc3ncc(C#N)c(NCc4cccc(F)c4)c3c2)cnc1Cl", -42.5),
    ("ClC(Cl)c1nc(-c2ccco2)n2nc(-c3ccccc3)cc2n1", 76.9),
    ("O=C(CSc1nnc(-c2ccc(Cl)cc2)n1-c1ccccc1)Nc1cccc(Cl)c1", 46.7),
    ("CC(=O)c1nnn(-c2c(C(=O)n3nc(C)cc3C)sc(=S)n2-c2ccccc2)c1C", 95.6),
    ("COc1ccc(-c2cc(-c3ccc(Cl)cc3)c(C#N)c(=O)n2Cc2ccc(C(=O)O)cc2)cc1", 96.9),
    ("NC(N)=Nc1ccc(Oc2cccc(Nc3ccc(Cl)cc3)c2)cn1", 14.4),
    ("COc1ccc([C@@H]2[C@@H](O)C(=O)N2c2cc(OC)c(OC)c(OC)c2)cc1F", 18.9),
    ("O=C1[C@@H]2Cc3c([nH]c4ccccc34)[C@H](c3c(Cl)cccc3Cl)N2C(=O)CN1C1CCN(CC2CCCCC2)CC1", 58.4),
    ("COc1ccc(Cn2cc3c(c2-c2cc(OC)c(OC)c(OC)c2)CCc2c(CN4CCCC4)noc2-3)cc1", 29.9),
    ("COc1ccc(-c2nc(C(Cl)Cl)nc3cc(-c4ccccc4)nn23)cc1", 2.02),
    ("Nc1nc(-c2cccc([N+](=O)[O-])c2)c(N=Nc2cccc([N+](=O)[O-])c2)s1", 27.6),
    ("Nc1nc(Nc2ccccc2SSc2ccccc2Nc2nc(N)nc(-c3ccccc3)n2)nc(-c2ccccc2)n1", 52.2),
    ("N=c1c2cc(-c3ccccc3)oc2ncn1/N=C/c1ccc(Br)cc1", 42.8),
    ("COc1cc2nc(Cl)nc(Nc3cccc(C4=Nc5c(N)nc(N)nc5NC(c5ccccc5)C4)c3)c2cc1OC (stereo unspecified)", 86.7),
    ("CCN1CCN(Cc2ccc(C(=O)Nc3ccc(C)c(Oc4ccc(-c5[nH]nc6ncnc(N)c56)cc4)c3)cc2C(F)(F)F)CC1", 82.1),
    ("CN(C)CCCOc1ccc2c(c1)CN(C(=O)c1cc(C(=O)N3Cc4cccc(F)c4C3)ccc1O)C2", 113),
    ("COc1c(N2CC3CCCNC3C2)c(F)cc2c(=O)c(C(=O)N/N=C/c3ccc4c(c3)OCO4)cn(C3CC3)c12 (stereo unspecified)", 51),
    ("COC(=O)c1[nH]nc2c1C1(C(=O)N(C)c3ccccc31)C(C#N)=C(N)O2 (stereo unspecified)", 105),
    ("CCn1c(SCC(=O)Nc2cccc(C(=O)/C=C/c3cc(OC)c(OC)c(OC)c3)c2)nc2ccccc2c1=O", 13),
    ("COc1cccc2c1CN(C(=O)c1ccc(O)c(C(=O)N3Cc4ccc(OCCC[P+](c5ccccc5)(c5ccccc5)c5ccccc5)cc4C3)c1)C2", 43.9),
    ("C[C@H]1c2[nH]c3ccccc3c2C[C@H]2C(=O)N(CCCCCCC(=O)NO)CC(=O)N21", 93),
    ("C#Cc1nc(C(C)=O)cs1", 101),
    ("NS(=O)(=O)c1ccc(Nc2nc(Nc3ccccc3)nc3nnc(SCC(=O)NC4CCCCC4)n23)cc1", 95.5),
    ("COc1cc(OC)cc(C(=O)Nc2sc3c(c2C(N)=O)CCC(=O)C3)c1", 48.8),
    ("COc1cc(-c2nn(C(C)(C)C)cc2-c2ccnc(NCCCNS(=O)(=O)c3ccccc3)n2)ccc1Cl", 55.2),
    ("Cc1nc2ncc(-c3ccc4ncnc(NCc5ccccc5)c4c3)cc2[nH]1", 16.8),
    ("CS(=O)(=O)Nc1cc(-c2ccc3ncc(C#N)c(NCc4ccccc4)c3c2)cnc1Cl", -17.4),
    ("COc1cc2oc(-c3cccc(NC(=O)c4cc(N)ccc4Cl)c3)cc(=O)c2c(OC)c1OC", 99.5),
    ("C=C1CC[C@@H]2[C@]3(C)COC(c4ccccc4)O[C@@H]3CC[C@@]2(C)[C@@H]1C/C=C1/C(=O)OC[C@H]1O (stereo partly specified)", 89.3),
    ("COc1ccccc1NC1=C(Cl)C(=O)c2nc(C)ccc2C1=O", -83.5),
    ("O=C(Cn1cc(-c2ccccc2)nn1)Nc1nc(-c2ccc(Cl)cc2)cs1", 108),
    ("COc1cc2c(cc1OC)C(Sc1ccc(F)cc1)c1c(nc(N)c(C#N)c1N)O2 (stereo unspecified)", -85.7),
]

Every entry's value here was drawn from PubChem BioAssay (NCI).
